Test: xn = mol fraction of the nth substance listed
Conditions: 298.15 K, x1 = 0.85
MEASURE: surface tension liquid-gas (mN/m)

CCCC(=O)OCCC(C)C [3-methylbutyl butanoate] + CCO	24.4
CCOC(=O)Cc1ccccc1 [ethyl phenylacetate] + CCO	32.8
CCCCCC(=O)OCC [ethyl hexanoate] + CCO	25.1
CC(=O)OCCC(C)C [3-methylbutyl ethanoate] + CCO	24
CCCCCCCC(=O)OCC [ethyl octanoate] + CCO	26.1
CCOC(=O)c1ccccc1 [ethyl benzoate] + CCO	32.5

====

Experiment: xn = mol fraction of the nth substance listed
Settings: 298.15 K, x1 = 0.65
MEASURE: surface tension liquid-gas (mN/m)

CCCCCC(=O)OCC [ethyl hexanoate] + CCO	24.7
CCCC(=O)OCCC(C)C [3-methylbutyl butanoate] + CCO	24
CCCCCCCC(=O)OCC [ethyl octanoate] + CCO	25.7
CC(=O)OCCC(C)C [3-methylbutyl ethanoate] + CCO	23.6
CCOC(=O)c1ccccc1 [ethyl benzoate] + CCO	30.2
CCOC(=O)Cc1ccccc1 [ethyl phenylacetate] + CCO	30.3

====

Assay: refractive index (Na D-line) (dimensionless); xn = mol fraction of the nth substance listed
Conditions: 288.15 K; 100.5 kPa; Liquid; Standard Abbe refractometry; x1 = 0.25
MEASURE: refractive index

CC(=O)OCCC(C)C [3-methylbutyl ethanoate] + CCO	1.38146
CCCC(=O)OCCC(C)C [3-methylbutyl butanoate] + CCO	1.38839
CCOC(=O)c1ccccc1 [ethyl benzoate] + CCO	1.43037
CCCCCC(=O)OCC [ethyl hexanoate] + CCO	1.38577
CCCCCCCC(=O)OCC [ethyl octanoate] + CCO	1.39327
CCOC(=O)Cc1ccccc1 [ethyl phenylacetate] + CCO	1.42932

====

Test: refractive index (Na D-line) (dimensionless); xn = mol fraction of the nth substance listed
Conditions: 308.15 K; 100.5 kPa; Liquid; Standard Abbe refractometry; x1 = 0.15
MEASURE: refractive index

CCCC(=O)OCCC(C)C [3-methylbutyl butanoate] + CCO	1.37218
CC(=O)OCCC(C)C [3-methylbutyl ethanoate] + CCO	1.3669
CCOC(=O)c1ccccc1 [ethyl benzoate] + CCO	1.39997
CCOC(=O)Cc1ccccc1 [ethyl phenylacetate] + CCO	1.40003
CCCCCCCC(=O)OCC [ethyl octanoate] + CCO	1.37601
CCCCCC(=O)OCC [ethyl hexanoate] + CCO	1.37024

====

Experiment: refractive index (Na D-line) (dimensionless); xn = mol fraction of the nth substance listed
Settings: 298.15 K; 100.5 kPa; Liquid; Standard Abbe refractometry; x1 = 0.2
MEASURE: refractive index

CCCCCC(=O)OCC [ethyl hexanoate] + CCO	1.37826
CC(=O)OCCC(C)C [3-methylbutyl ethanoate] + CCO	1.3744
CCCC(=O)OCCC(C)C [3-methylbutyl butanoate] + CCO	1.38059
CCOC(=O)Cc1ccccc1 [ethyl phenylacetate] + CCO	1.41536
CCCCCCCC(=O)OCC [ethyl octanoate] + CCO	1.38502
CCOC(=O)c1ccccc1 [ethyl benzoate] + CCO	1.41593

====

Assay: refractive index (Na D-line) (dimensionless); xn = mol fraction of the nth substance listed
Conditions: 308.15 K; 100.5 kPa; Liquid; Standard Abbe refractometry; x1 = 0.05
MEASURE: refractive index

CCCCCCCC(=O)OCC [ethyl octanoate] + CCO	1.36356
CCOC(=O)c1ccccc1 [ethyl benzoate] + CCO	1.37237
CCCC(=O)OCCC(C)C [3-methylbutyl butanoate] + CCO	1.36195
CCOC(=O)Cc1ccccc1 [ethyl phenylacetate] + CCO	1.37265
CC(=O)OCCC(C)C [3-methylbutyl ethanoate] + CCO	1.35964
CCCCCC(=O)OCC [ethyl hexanoate] + CCO	1.36109

====

Assay: refractive index (Na D-line) (dimensionless); xn = mol fraction of the nth substance listed
Conditions: 288.15 K; 100.5 kPa; Liquid; Standard Abbe refractometry; x1 = 0.6
MEASURE: refractive index

CCOC(=O)Cc1ccccc1 [ethyl phenylacetate] + CCO	1.47365
CCCCCCCC(=O)OCC [ethyl octanoate] + CCO	1.41053
CCOC(=O)c1ccccc1 [ethyl benzoate] + CCO	1.47816
CCCCCC(=O)OCC [ethyl hexanoate] + CCO	1.40066
CCCC(=O)OCCC(C)C [3-methylbutyl butanoate] + CCO	1.40399
CC(=O)OCCC(C)C [3-methylbutyl ethanoate] + CCO	1.39462

====

Experiment: xn = mol fraction of the nth substance listed
Details: 288.15 K, x1 = 0.7
MEASURE: surface tension liquid-gas (mN/m)

CCOC(=O)c1ccccc1 [ethyl benzoate] + CCO	31.8
CCOC(=O)Cc1ccccc1 [ethyl phenylacetate] + CCO	32.2
CC(=O)OCCC(C)C [3-methylbutyl ethanoate] + CCO	24.8
CCCCCC(=O)OCC [ethyl hexanoate] + CCO	25.8
CCCC(=O)OCCC(C)C [3-methylbutyl butanoate] + CCO	25.1
CCCCCCCC(=O)OCC [ethyl octanoate] + CCO	26.6

====

Assay: refractive index (Na D-line) (dimensionless)
Conditions: 288.15 K; 101.33 kPa; Liquid; Standard Abbe refractometry
MEASURE: refractive index

CCCC(=O)OCCC(C)C [3-methylbutyl butanoate]	1.41259
CC(=O)OCCC(C)C [3-methylbutyl ethanoate]	1.40288
CCCCCCCC(=O)OCC [ethyl octanoate]	1.41991
CCOC(=O)c1ccccc1 [ethyl benzoate]	1.5076
CCOC(=O)Cc1ccccc1 [ethyl phenylacetate]	1.49971
CCCCCC(=O)OCC [ethyl hexanoate]	1.4095
CCO	1.36333

====

Assay: xn = mol fraction of the nth substance listed
Conditions: 288.15 K, x1 = 0.25
MEASURE: surface tension liquid-gas (mN/m)

CCCCCC(=O)OCC [ethyl hexanoate] + CCO	24.5
CCOC(=O)Cc1ccccc1 [ethyl phenylacetate] + CCO	26.5
CCOC(=O)c1ccccc1 [ethyl benzoate] + CCO	26.9
CC(=O)OCCC(C)C [3-methylbutyl ethanoate] + CCO	23.8
CCCCCCCC(=O)OCC [ethyl octanoate] + CCO	25.1
CCCC(=O)OCCC(C)C [3-methylbutyl butanoate] + CCO	24.1

====

Test: refractive index (Na D-line) (dimensionless); xn = mol fraction of the nth substance listed
Details: 298.15 K; 100.5 kPa; Liquid; Standard Abbe refractometry; x1 = 0.05
MEASURE: refractive index

CCOC(=O)c1ccccc1 [ethyl benzoate] + CCO	1.37682
CCCCCCCC(=O)OCC [ethyl octanoate] + CCO	1.36779
CC(=O)OCCC(C)C [3-methylbutyl ethanoate] + CCO	1.36393
CCCC(=O)OCCC(C)C [3-methylbutyl butanoate] + CCO	1.36624
CCOC(=O)Cc1ccccc1 [ethyl phenylacetate] + CCO	1.37693
CCCCCC(=O)OCC [ethyl hexanoate] + CCO	1.36535

====

Assay: refractive index (Na D-line) (dimensionless); xn = mol fraction of the nth substance listed
Conditions: 288.15 K; 100.5 kPa; Liquid; Standard Abbe refractometry; x1 = 0.05
MEASURE: refractive index

CCCCCC(=O)OCC [ethyl hexanoate] + CCO	1.36942
CCCCCCCC(=O)OCC [ethyl octanoate] + CCO	1.37185
CCOC(=O)c1ccccc1 [ethyl benzoate] + CCO	1.38111
CC(=O)OCCC(C)C [3-methylbutyl ethanoate] + CCO	1.36803
CCCC(=O)OCCC(C)C [3-methylbutyl butanoate] + CCO	1.3703
CCOC(=O)Cc1ccccc1 [ethyl phenylacetate] + CCO	1.38109

====

Assay: refractive index (Na D-line) (dimensionless); xn = mol fraction of the nth substance listed
Conditions: 318.15 K; 100.5 kPa; Liquid; Standard Abbe refractometry; x1 = 0.8
MEASURE: refractive index

CCOC(=O)Cc1ccccc1 [ethyl phenylacetate] + CCO	1.47458
CCCCCC(=O)OCC [ethyl hexanoate] + CCO	1.39225
CCCC(=O)OCCC(C)C [3-methylbutyl butanoate] + CCO	1.39569
CC(=O)OCCC(C)C [3-methylbutyl ethanoate] + CCO	1.38543
CCOC(=O)c1ccccc1 [ethyl benzoate] + CCO	1.48098
CCCCCCCC(=O)OCC [ethyl octanoate] + CCO	1.40302

====

Assay: refractive index (Na D-line) (dimensionless); xn = mol fraction of the nth substance listed
Details: 298.15 K; 100.5 kPa; Liquid; Standard Abbe refractometry; x1 = 0.95
MEASURE: refractive index

CCOC(=O)Cc1ccccc1 [ethyl phenylacetate] + CCO	1.49266
CCCCCCCC(=O)OCC [ethyl octanoate] + CCO	1.41472
CCCCCC(=O)OCC [ethyl hexanoate] + CCO	1.40422
CC(=O)OCCC(C)C [3-methylbutyl ethanoate] + CCO	1.39755
CCOC(=O)c1ccccc1 [ethyl benzoate] + CCO	1.50037
CCCC(=O)OCCC(C)C [3-methylbutyl butanoate] + CCO	1.40737

The origin of these recorded values is the NIST ThermoML archive (doi:10.1021/je0601208).
